Tested on: MCF7
Assay: Cytotoxicity against human MCF7 cells assessed as growth inhibition after 48 hrs by MTS assay
Format: functional, cell-based
Settings: MCF7, 48 h
pIC50: −log10 of the molar value.
Reported pIC50 values for the following compounds.

| chemical_smiles | value_relation_sign | pIC50 |
| --- | --- | --- |
| C=C1[C@@H]2C[C@H](OC(C)=O)[C@H]3[C@]4(C)[C@@H](OC(C)=O)C[C@H](O)C(C)(C)[C@H]4C(=O)[C@H](O)[C@]3(C2)[C@@H]1OC(C)=O | < | 5.00 |
| C=C1[C@@H]2C[C@H](O)[C@H]3[C@]4(C)[C@@H](OC(C)=O)C[C@H](O)C(C)(C)[C@H]4[C@@H](OC(C)=O)[C@H](OC(C)=O)[C@]3(C2)[C@@H]1O | < | 5.00 |
| C=C1C(=O)[C@@]23CC[C@@H]4[C@@](C)(CO)CCC[C@@]4(C=O)[C@@H]2CC[C@@H]1[C@H]3O | < | 5.00 |
| C=C1C(=O)[C@@]23[C@H](O)C[C@@H]4[C@@](C)(CO)[C@@H](O)CC[C@@]4(C)[C@@H]2CC(=O)[C@@H]1[C@H]3O | < | 5.00 |
| C=C1C(=O)[C@@]23[C@H](O)C[C@@H]4C(C)(C)CCC[C@@]4(C)[C@@H]2[C@@H](O)[C@H](O)[C@@H]1[C@H]3OC(C)=O | < | 5.00 |
| C=C1C(=O)[C@@]23[C@H](O)C[C@H]4[C@@](C)(CCC[C@]4(C)C=O)[C@@H]2C[C@H](O)[C@@H]1[C@H]3O | = | 5.43 |
| C=C1C(=O)[C@@]23[C@H](O)C[C@@H]4C(C)(C)CCC[C@@]4(C)[C@@H]2[C@@H](O)C[C@@H]1[C@H]3O | = | 5.82 |
| C=C1C(=O)[C@]23C[C@H]1C[C@H](OC(C)=O)[C@H]2[C@]1(C)[C@@H](OC(C)=O)C[C@H](O)C(C)(C)[C@H]1C(=O)[C@@H]3OC(C)=O | = | 5.55 |
| C=C1C(=O)[C@@]23CC[C@@H]4[C@@](C)(CO)CCC[C@@]4(C)[C@@H]2C[C@H](O)[C@@H]1[C@H]3O | < | 5.00 |
| C=C1[C@H]2C[C@@]3(CC[C@@H]4[C@@](C)(CO)CCC[C@@]4(C)[C@@H]3C[C@@H]2O)[C@@H]1O | < | 5.00 |
| C=C1C(=O)[C@@]23CC[C@@H]4[C@@](C)(CO)[C@H](O)CC[C@@]4(C)[C@@H]2C[C@H](O)[C@@H]1C3 | = | 5.32 |
| C=C1C(=O)[C@@]23[C@H](O)C[C@@H]4[C@@](C)(COC(C)=O)CCC[C@@]4(C)[C@@H]2C[C@H](O)[C@@H]1[C@H]3O | = | 5.77 |
| C=C1[C@@H]2CC[C@H]3[C@]4(C)CCC(=O)[C@](C)(CO)[C@H]4CC[C@]3(C2)[C@@H]1O | < | 5.00 |
| C=C1C(=O)[C@@]23CC(=O)[C@@H]4C(C)(C)CCC[C@@]4(C)[C@@H]2[C@@H](O)C[C@@H]1[C@H]3O | = | 5.80 |
| C=C1[C@H]2[C@@H](O)[C@@]3([C@H](O)C[C@@H]4[C@@](C)(CO)CCC[C@@]4(C)[C@@H]3C[C@@H]2O)[C@@H]1OC(C)=O | < | 5.00 |
